These entries and their values trace back to ChEMBL document CHEMBL5518172.

# System: Bacteria
# experimentalDetails: Inhibition of recombinant metallo-beta-lactamase ImiS (unknown origin) expressed in Escherichia coli BL21 (DE3) cells using meropenem as substrate at 20 uM by spectrometric analysis relative to control
Each entry below carries its reported inhibition.

| lineNotation | measuredOn | inhibition |
| --- | --- | --- |
| O=C(OCc1ccccc1)ONC(=O)c1ccccc1 | Bacteria | < 42% |
| CC(C)COC(=O)ONC(=O)CCCc1ccccc1 | Bacteria | < 42% |
| CCCCCOC(=O)ONC(=O)CCCc1ccccc1 | Bacteria | < 42% |
| O=C(CCc1ccccc1)NOC(=O)OCc1ccccc1 | Bacteria | < 42% |
| CCCCCOC(=O)ONC(=O)CCc1ccccc1 | Bacteria | < 42% |
| CCOC(=O)ONC(=O)CC(c1ccccc1)c1ccccc1 | Bacteria | < 42% |

# input Provide inhibition, recorded with Bacteria, of `CC(=O)NOC(=O)OCc1ccccc1`
# output < 42%

# input Report value only: inhibition, Bacteria, `CCOC(=O)ONC(=O)CCCc1ccccc1`
# output < 42%

# input Fill: inhibition (Bacteria) for this compound `O=C(CC(c1ccccc1)c1ccccc1)NOC(=O)OCc1ccccc1`
# output < 42%

# input # lookup: Bacteria inhibition, key = `O=C(CCCc1ccccc1)NOC(=O)OCc1ccccc1`
# output < 42%

---

Item-by-item account of fold change (FC)
# Tested on: Escherichia coli
# experimentalDetails: Synergistic antibacterial activity against Escherichia coli BL21 (DE3) harboring serine beta lactamase OXA-48 assessed as fold decrease in meropenem MIC at 64 microg/ml measured after 16 hrs by CLSI protocol based broth microdilution method
# Assay type: functional
# experimentalSetup: dose 64 µg/ml
Respond with the number and no other words.

Here are 3 compounds together with their reported answers.
| lineNotation | fold change (FC) |
| --- | --- |
| CCOC(=O)ONC(=O)CCCc1ccccc1 | 2 |
| CCOC(=O)ONC(=O)CCc1ccccc1 | 2 |
| CC(C)COC(=O)ONC(=O)CCC1CCCCC1 | 16 |

# input Give fold change (FC) for `O=C(CCC1CCCCC1)NOC(=O)OCc1ccccc1`
# output 2

# input Please give measured fold change (FC) of the following entry: `O=C(CC(c1ccccc1)c1ccccc1)NOC(=O)OCc1ccccc1`
# output 2

# input Name the recorded fold change (FC) of the compound listed here: `CCOC(=O)ONC(=O)CCC1CCCCC1`
# output 16

# input Please give the documented fold change (FC) of `CCCCCOC(=O)ONC(=O)CCCc1ccccc1`
# output 2

# input Give the value of fold change (FC) reported for the following: `CC(C)COC(=O)ONC(=O)CCCc1ccccc1`
# output 2

---

# Test system: Escherichia coli
# experimentalDetails: Synergistic antibacterial activity against Escherichia coli BL21 (DE3) harboring serine beta lactamase KPC-2 assessed as meropenem MIC at 64 microg/ml measured after 16 hrs by CLSI protocol based broth microdilution method (reference value: 16 microg/ml)
# Format: functional
# experimentalSetup: dose 64 µg/ml
measure: MIC (µg/mL)
Express your answer in µg/mL, writing the number without its unit.

| molecule | MIC, µg/mL |
| --- | --- |
| CC(C)COC(=O)ONC(=O)CCC1CCCCC1 | 16 |
| CCCCCOC(=O)ONC(=O)CCCc1ccccc1 | 8 |
| CCCCCOC(=O)ONC(=O)C(CC)c1ccccc1 (stereo not drawn) | 8 |
| CCOC(=O)ONC(=O)CCC1CCCCC1 | 16 |

# input Give the value of MIC reported for the following: `CC(=O)NOC(=O)OCc1ccccc1`
# output 16

# input Quote MIC reported for `CCOC(=O)ONC(=O)CCc1ccccc1` please.
# output 8

# input Specify MIC for `O=C(CCc1ccccc1)NOC(=O)OCc1ccccc1` and stop.
# output 8

---

# Test system: Escherichia coli
# experimentalDetails: Synergistic antibacterial activity against Escherichia coli BL21 (DE3) harboring serine beta lactamase OXA-48 assessed as meropenem MIC at 64 microg/ml measured after 16 hrs by CLSI protocol based broth microdilution method (reference value: 1 microg/ml)
# Assay type: functional
# experimentalSetup: dose 64 µg/ml
Each entry below carries its reported MIC.

| compound | measuredOn | MIC |
| --- | --- | --- |
| CCCCCOC(=O)ONC(=O)C(CC)c1ccccc1 (stereo not drawn) | Escherichia coli | 1 µg/mL |
| CC(C)COC(=O)ONC(=O)CCCc1ccccc1 | Escherichia coli | 0.5 µg/mL |
| CC(=O)NOC(=O)OCc1ccccc1 | Escherichia coli | 1 µg/mL |
| O=C(CCCc1ccccc1)NOC(=O)OCc1ccccc1 | Escherichia coli | 0.5 µg/mL |
| O=C(OCc1ccccc1)ONC(=O)c1ccccc1 | Escherichia coli | 1 µg/mL |

# input Return reported MIC. Input compound: `CCOC(=O)ONC(=O)CC(c1ccccc1)c1ccccc1`
# output 1 µg/mL

# input Please indicate MIC recorded for `CCOC(=O)ONC(=O)CCC1CCCCC1`
# output 0.063 µg/mL

# input Report measured MIC; entry is `CCCCCOC(=O)ONC(=O)CCCc1ccccc1`
# output 0.5 µg/mL

---

# Test system: Escherichia coli
# experimentalDetails: Synergistic antibacterial activity against Escherichia coli BL21 (DE3) harboring serine beta lactamase KPC-2 assessed as meropenem MIC at 64 microg/ml measured after 16 hrs by CLSI protocol based broth microdilution method (reference value: 16 microg/ml)
# Assay type: functional
# experimentalSetup: dose 64 µg/ml
measure: MIC (µg/mL)
Kindly answer with a numeric value in µg/mL, unit omitted.

| compound | number |
| --- | --- |
| O=C(OCc1ccccc1)ONC(=O)C1CCCCC1 | 16 |
| CCOC(=O)ONC(=O)CCCc1ccccc1 | 4 |
| O=C(OCc1ccccc1)ONC(=O)c1ccccc1 | 16 |
| CCOC(=O)ONC(=O)C(CC)c1ccccc1 (stereo not given) | 16 |

Kindly consider the entry below.
# input Enter measured MIC, system Escherichia coli, for the compound shown: `CC(C)COC(=O)ONC(=O)CCc1ccccc1`
# output 8

---

# experimentalDetails: Cytotoxicity against mouse L929 cells assessed as cell viability upto 200 uM incubated for 48 hrs by CCK8 assay relative to control
# Assay type: toxicity, cell-based
# experimentalSetup: read-out: Activity
Examples of compounds with documented viability at 48 h, up to 200 µM follow.

| lineNotation | viability at 48 h, up to 200 µM |
| --- | --- |
| O=C(CCCc1ccccc1)NOC(=O)OCc1ccccc1 | > 80% |

// switching to the query compound
# input Entry `CC(C)COC(=O)ONC(=O)CCC1CCCCC1` needs its viability at 48 h, up to 200 µM filled in; supply it.
# output > 80%

---

# experimentalDetails: Inhibition of recombinant serine beta lactamase KPC-2 (unknown origin) expressed in Escherichia coli BL21 (DE3) cells using meropenem as substrate by spectrometric analysis
# Parameters: species or system Bacteria
measure: IC50 (nM)
Quick note: give the figure in nM, leave out the unit.

| lineNotation | measure | unitsSymbol | number |
| --- | --- | --- | --- |
| CCOC(=O)ONC(=O)CCCc1ccccc1 | IC50 | nM | 980 |
| O=C(OCc1ccccc1)ONC(=O)C1CCCCC1 | IC50 | nM | 41900 |
| CCOC(=O)ONC(=O)CC(c1ccccc1)c1ccccc1 | IC50 | nM | 13100 |

# input Give IC50 for `CCCCCOC(=O)ONC(=O)CCCc1ccccc1`
# output 1470

# input Please supply the value of reported IC50 for the item `O=C(CCc1ccccc1)NOC(=O)OCc1ccccc1`
# output 2660

# input Read the entry `CCOC(=O)ONC(=O)CCC1CCCCC1` and write its reported IC50.
# output 1290

---

# experimentalDetails: Inhibition of recombinant serine beta lactamase OXA-48 (unknown origin) expressed in Escherichia coli BL21 (DE3) cells using meropenem as substrate by spectrometric analysis
# Design: species or system Bacteria
measure: pIC50
# pIC50 is unitless: minus log10 of the molar concentration; print number only

Worked examples follow.
| compound | number |
| --- | --- |
| O=C(CCC1CCCCC1)NOC(=O)OCc1ccccc1 | 5.70 |
| CCOC(=O)ONC(=O)CCC1CCCCC1 | 5.46 |
| CCOC(=O)ONC(=O)CC(c1ccccc1)c1ccccc1 | 5.00 |
| CCCCCOC(=O)ONC(=O)CCc1ccccc1 | 5.04 |
| CCOC(=O)ONC(=O)CCc1ccccc1 | 5.07 |

Then this compound:
# input Answer with the recorded pIC50 of CCCCCOC(=O)ONC(=O)C(CC)c1ccccc1 (configuration not stated) only.
# output 4.65

---

Items are presented alongside their recorded pIC50.
# measuredOn: Metallo-beta-lactamase type 2 (Bacteria, UniProt C7C422)
# Sequence (C7C422 whole entry): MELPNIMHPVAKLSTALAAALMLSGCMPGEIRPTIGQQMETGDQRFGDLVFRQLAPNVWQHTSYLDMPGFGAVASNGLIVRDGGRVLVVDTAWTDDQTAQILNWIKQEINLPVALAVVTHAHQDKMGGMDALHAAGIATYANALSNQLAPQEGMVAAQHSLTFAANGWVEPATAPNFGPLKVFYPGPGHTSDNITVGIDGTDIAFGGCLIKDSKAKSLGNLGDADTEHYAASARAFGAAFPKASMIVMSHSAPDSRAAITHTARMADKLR
# experimentalDetails: Inhibition of recombinant NDM-1 (unknown origin) expressed in Escherichia coli BL21 (DE3) cells using meropenem as substrate by spectrometric analysis
pIC50 is a log-scale quantity: -log10 of the concentration expressed in molar.

Previously resolved entries follow.
| compound | measuredOn | pIC50 |
| --- | --- | --- |
| CCOC(=O)ONC(=O)C(CC)c1ccccc1 (stereo not drawn) | Metallo-beta-lactamase type 2 (Bacteria, UniProt C7C422) | 4.43 |
| CCCCCOC(=O)ONC(=O)C(CC)c1ccccc1 (stereo not drawn) | Metallo-beta-lactamase type 2 (Bacteria, UniProt C7C422) | 4.45 |
| O=C(CCCc1ccccc1)NOC(=O)OCc1ccccc1 | Metallo-beta-lactamase type 2 (Bacteria, UniProt C7C422) | 6.19 |
| CC(C)COC(=O)ONC(=O)CCc1ccccc1 | Metallo-beta-lactamase type 2 (Bacteria, UniProt C7C422) | 5.22 |
| CCOC(=O)ONC(=O)CCc1ccccc1 | Metallo-beta-lactamase type 2 (Bacteria, UniProt C7C422) | 5.30 |
| CC(C)COC(=O)ONC(=O)CCCc1ccccc1 | Metallo-beta-lactamase type 2 (Bacteria, UniProt C7C422) | 5.73 |
| O=C(CCc1ccccc1)NOC(=O)OCc1ccccc1 | Metallo-beta-lactamase type 2 (Bacteria, UniProt C7C422) | 5.66 |
| CCCCCOC(=O)ONC(=O)CCc1ccccc1 | Metallo-beta-lactamase type 2 (Bacteria, UniProt C7C422) | 5.33 |

Turning to the following compound.
# input Specify measured pIC50 for `O=C(OCc1ccccc1)ONC(=O)C1CCCCC1` .
# output 4.39
